# method.summary: Human HepG2 cell viability assay in 384 well format
# Assay type: toxicity, cell-based
# Parameters: dose 125 nL, time 70.5 hour; concentration not given beside the values
# settings: HepG2 cells, read-out: Inhibition
metric: cytotoxicity at 70.5 h (%)
Numbers only, in %.

[
  {
    "compound": "CCCC(O)CN1CC(C)(C)CN(C(=O)c2ccccc2)CC1=O (stereo unspecified)",
    "cytotoxicity at 70.5 h [%]": -10.1
  },
  {
    "compound": "COc1cccc(S(=O)(=O)N2C[C@@H](N(C)C)[C@H](C(C)C)C2)c1",
    "cytotoxicity at 70.5 h [%]": -0.713
  },
  {
    "compound": "Cc1[nH]ncc1C(=O)N1CCN(CC(O)C(C)(C)C)CC1 (stereo unspecified)",
    "cytotoxicity at 70.5 h [%]": -14.9
  }
]

Batch request: cytotoxicity at 70.5 h per item, same order as input.
1. NC(=O)Cn1cc(NC(=O)N2CCC(c3ccccc3)CC2)cn1
2. Cc1nc(NC(=O)c2c(-n3cnnn3)sc3c2CCC3)sc1C
3. CC(O)c1cccc(N2CCC3(CC2)Nc2ccccc2NC3=O)n1 (stereo unspecified)

A.
-5.24
-5.79
21.3
